Target: Integrin alpha-IIb/beta-3 (Homo sapiens, UniProt P08514+P05106)
Sequence (P05106 27-788 limits assumed): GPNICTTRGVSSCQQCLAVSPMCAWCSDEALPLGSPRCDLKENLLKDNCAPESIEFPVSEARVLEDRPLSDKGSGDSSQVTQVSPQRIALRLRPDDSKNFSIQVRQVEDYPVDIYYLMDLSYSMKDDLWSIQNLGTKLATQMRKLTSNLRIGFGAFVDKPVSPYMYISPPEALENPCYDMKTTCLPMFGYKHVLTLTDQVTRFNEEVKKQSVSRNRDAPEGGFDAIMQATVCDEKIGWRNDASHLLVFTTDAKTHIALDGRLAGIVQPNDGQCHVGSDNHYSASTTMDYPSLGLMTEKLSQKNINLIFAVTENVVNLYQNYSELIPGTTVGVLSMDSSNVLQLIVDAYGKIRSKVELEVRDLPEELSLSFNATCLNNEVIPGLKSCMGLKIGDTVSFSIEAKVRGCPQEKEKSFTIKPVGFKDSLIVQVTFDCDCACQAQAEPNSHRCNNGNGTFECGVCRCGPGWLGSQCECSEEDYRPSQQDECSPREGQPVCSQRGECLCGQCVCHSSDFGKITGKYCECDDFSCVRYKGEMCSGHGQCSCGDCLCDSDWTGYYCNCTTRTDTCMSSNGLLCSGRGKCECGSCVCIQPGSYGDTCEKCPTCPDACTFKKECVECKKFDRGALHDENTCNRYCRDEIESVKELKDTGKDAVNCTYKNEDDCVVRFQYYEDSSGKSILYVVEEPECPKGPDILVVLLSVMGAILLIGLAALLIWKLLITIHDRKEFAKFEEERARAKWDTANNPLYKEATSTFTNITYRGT
Sequence (P08514 32-887 limits assumed): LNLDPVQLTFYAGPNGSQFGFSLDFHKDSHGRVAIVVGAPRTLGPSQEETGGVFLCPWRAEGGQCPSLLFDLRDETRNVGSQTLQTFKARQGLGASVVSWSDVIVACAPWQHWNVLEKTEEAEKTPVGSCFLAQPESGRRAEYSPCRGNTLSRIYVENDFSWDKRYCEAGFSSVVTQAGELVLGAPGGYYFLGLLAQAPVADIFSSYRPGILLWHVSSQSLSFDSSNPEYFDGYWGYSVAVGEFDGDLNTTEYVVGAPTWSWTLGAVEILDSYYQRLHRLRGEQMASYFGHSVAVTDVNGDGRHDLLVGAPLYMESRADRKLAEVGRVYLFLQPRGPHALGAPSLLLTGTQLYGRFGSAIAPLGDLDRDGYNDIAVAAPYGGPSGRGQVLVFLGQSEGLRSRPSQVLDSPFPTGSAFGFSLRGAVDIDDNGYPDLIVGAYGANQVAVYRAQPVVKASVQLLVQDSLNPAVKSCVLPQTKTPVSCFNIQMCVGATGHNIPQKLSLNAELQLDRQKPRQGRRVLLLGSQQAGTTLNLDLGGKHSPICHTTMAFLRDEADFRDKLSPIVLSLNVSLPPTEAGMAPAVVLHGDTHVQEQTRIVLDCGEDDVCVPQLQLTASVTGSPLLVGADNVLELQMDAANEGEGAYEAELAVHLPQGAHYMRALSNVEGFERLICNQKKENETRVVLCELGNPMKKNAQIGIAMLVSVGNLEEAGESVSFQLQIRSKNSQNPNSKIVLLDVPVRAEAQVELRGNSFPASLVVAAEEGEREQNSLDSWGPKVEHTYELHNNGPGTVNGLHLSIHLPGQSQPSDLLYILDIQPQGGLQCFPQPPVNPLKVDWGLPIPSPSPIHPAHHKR
Sequence (P08514 891-1039 limits assumed): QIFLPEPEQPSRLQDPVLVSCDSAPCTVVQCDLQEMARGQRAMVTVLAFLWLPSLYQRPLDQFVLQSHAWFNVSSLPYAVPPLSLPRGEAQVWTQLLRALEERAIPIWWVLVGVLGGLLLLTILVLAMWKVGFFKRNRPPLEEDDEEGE
Assay: Inhibition of aggregation of human gel-purified platelets (GPIIbIIIa GPP)
Measured IC50, listed per entry.
Note: unit nM is implicit; provide only the numeric part.

// worked examples, IC50 included
Molecule Smiles: Cc1cc(C)c(NS(=O)(=O)N[C@@H](CNC(=O)c2ccc3c(cnn3CCCNc3ccccn3)c2)C(=O)O)c(C)c1
IC50 [nM]: 36000
--
Molecule Smiles: O=C(NC[C@H](NS(=O)(=O)c1ccc(Cl)cc1)C(=O)O)c1ccc2c(cnn2CCCNc2ncc[nH]2)c1
IC50 [nM]: 260
--
Molecule Smiles: Cc1cc(C)c(S(=O)(=O)N[C@@H](CNC(=O)c2ccc3c(cnn3CCC(=O)Nc3ncc[nH]3)c2)C(=O)O)c(C)c1
IC50 [nM]: 4000
--
Molecule Smiles: O=C(N[C@@H](CNC(=O)c1ccc2c(cnn2CCCNc2ncc[nH]2)c1)C(=O)O)OCc1ccccc1
IC50 [nM]: 1000
--
Molecule Smiles: COc1ccc(S(=O)(=O)N[C@@H](CNC(=O)c2ccc3c(cnn3CCCNc3ncc[nH]3)c2)C(=O)O)cc1
IC50 [nM]: 410

IC50 on Integrin alpha-IIb/beta-3 (Homo sapiens, UniProt P08514+P05106) for `Cc1ccc(S(=O)(=O)N[C@@H](CNC(=O)c2ccc3c(cnn3CCCNc3ncc[nH]3)c2)C(=O)O)cc1` is 83

IC50 on Integrin alpha-IIb/beta-3 (Homo sapiens, UniProt P08514+P05106) for `CC(=O)Nc1ccc(S(=O)(=O)N[C@@H](CNC(=O)c2ccc3c(cnn3CCCNc3ncc[nH]3)c2)C(=O)O)cc1` is 400

Numbers sourced from BindingDB's records for doi:10.1021/jm990049j.
